measurement description: Ratio of drug uptake in SCID mouse xenograted with human HT-29 cells assessed as tumour retention to drug uptake in blood of SCID mouse xenografted with human HT-29 cells cotreated with D-lysine at 40 mg/kg measured after 24 hrs using 177Lu labelled compound
Format: ADME, organism-based, Tumor/Blood
value kind: Kp at 24 h
API note: the answer field is a bare number with no unit suffix.

response.value for Cc1cc(O)cc(C)c1C[C@H](NC(=O)[C@@H]1CCCN1C(=O)[C@H](CCCNC(=N)N)NC(=O)[C@H](CCCNC(=N)N)N(C)C(=O)[C@@H]1CCCN1C(=O)[C@H](CCCCN)NC(=O)[C@@H](CO)NC(=O)[C@@H](CO)NC(=O)[C@@H](CO)NC(=O)[C@H](Cc1cn(CCNC(=O)[C@H](CCCNC(=N)N)NC(=O)[C@H](CC(C)C)NC(=O)C2OC2C(=O)O)nn1)NC(=O)CN1CCN(CC(=O)O)CCN(CC(=O)O)CCN(CC(=O)O)CC1)C(=O)N[C@H](C(=O)N[C@@H](CC(C)C)C(=O)O)C(C)(C)C (stereo partly specified) (field: Kp at 24 h) = 299

* * *

measurement description: Ratio of drug uptake in SCID mouse xenograted with human HT-29 cells assessed as tumour retention to drug uptake in blood of SCID mouse xenografted with human HT-29 cells measured after 24 hrs using 177Lu labelled compound
Assay type: ADME, tissue-based, Tumor/Blood
value kind: Kp at 24 h
Form: value (number only, do not type unit).

The compound listed as Cc1cc(O)cc(C)c1C[C@H](NC(=O)[C@@H]1CCCN1C(=O)[C@H](CCCNC(=N)N)NC(=O)[C@H](CCCNC(=N)N)N(C)C(=O)[C@@H]1CCCN1C(=O)[C@H](CCCCN)NC(=O)[C@@H](CO)NC(=O)[C@@H](CO)NC(=O)[C@@H](CO)NC(=O)[C@H](Cc1cn(CCNC(=O)[C@H](CCCNC(=N)N)NC(=O)[C@H](CC(C)C)NC(=O)C2OC2C(=O)O)nn1)NC(=O)CN1CCN(CC(=O)O)CCN(CC(=O)O)CCN(CC(=O)O)CC1)C(=O)N[C@H](C(=O)N[C@@H](CC(C)C)C(=O)O)C(C)(C)C (stereo partly specified) has a reported Kp at 24 h of 422

* * *

measurement description: Stability of 177Lu labelled compound in human serum assessed as parent compound remaining at 37 degC after 1 hr RP-HPLC analysis
Format: ADME, cell-free
measurement conditions: read-out: Stability
Task for the reader: assign each of the following molecules its reported remaining at 1 h.

Per the record, Cc1cc(O)cc(C)c1C[C@H](NC(=O)[C@@H]1CCCN1C(=O)[C@H](CCCNC(=N)N)NC(=O)[C@H](CCCNC(=N)N)N(C)C(=O)[C@@H]1CCCN1C(=O)[C@H](CCCCN)NC(=O)[C@@H](CO)NC(=O)[C@@H](CO)NC(=O)[C@@H](CO)NC(=O)[C@H](Cc1cn(CCNC(=O)[C@H](CCCNC(=N)N)NC(=O)[C@H](CC(C)C)NC(=O)C2OC2C(=O)O)nn1)NC(=O)CN1CCN(CC(=O)O)CCN(CC(=O)O)CCN(CC(=O)O)CC1)C(=O)N[C@H](C(=O)N[C@@H](CC(C)C)C(=O)O)C(C)(C)C (some centres not stated) has remaining at 1 h of 93.6%

Quick note, remaining at 1 h for `Cc1cc(O)cc(C)c1C[C@H](NC(=O)[C@@H]1CCCN1C(=O)[C@H](CCCNC(=N)N)NC(=O)[C@H](CCCNC(=N)N)N(C)C(=O)[C@@H]1CCCN1C(=O)[C@H](CCCCN)NC(=O)[C@@H](CO)NC(=O)[C@@H](CO)NC(=O)[C@@H](CO)NC(=O)[C@H](Cc1cn(CCNC(=O)[C@H](CCCNC(=N)N)NC(=O)[C@H](CC(C)C)NC(=O)CCC(=O)O)nn1)NC(=O)CN1CCN(CC(=O)O)CCN(CC(=O)O)CCN(CC(=O)O)CC1)C(=O)N[C@H](C(=O)N[C@@H](CC(C)C)C(=O)O)C(C)(C)C` landed at 84.7%

The measured values listed here are drawn from ChEMBL document CHEMBL4350999.
